CC50 values, listed per item
system: MT4 cells; experiment: Cytotoxicity in MT4 cells (LC50, 50% of the cells remain viable); assay type: cell-based; conditions: MT4 cells; concentration at which 50% of the cells remain viable

- compound: "CC(C)c1nc(COC(=O)N[C@H](C(=O)N[C@@H](Cc2ccccc2)[C@H](O)CN2CCN(Cc3ccc(F)cc3)C[C@H]2C(=O)NC(C)(C)C)C(C)C)cs1 [Example 3]"
  sign: "="
  CC50 (µM): 15.7
- compound: "CCc1ncc(COC(=O)N[C@H](C(=O)N[C@@H](Cc2ccccc2)[C@H](O)CN2CCN(Cc3ccc(OC)c(OC)c3)C[C@H]2C(=O)NC(C)(C)C)C(C)C)s1 [Example 20]"
  sign: "="
  CC50 (µM): 49.7
- compound: "CC(C)[C@H](NC(=O)OCc1cncs1)C(=O)N[C@@H](Cc1ccccc1)[C@H](O)CN1CCN(Cc2cncs2)C[C@H]1C(=O)NC(C)(C)C [Example 25]"
  sign: ">"
  CC50 (µM): 100
- compound: "CC(C)c1nc(COC(=O)N[C@H](C(=O)N[C@@H](Cc2ccccc2)[C@H](O)CN2CCN(Cc3ccc(O)cc3)C[C@H]2C(=O)NC(C)(C)C)C(C)C)cs1 [Example 8]"
  sign: "="
  CC50 (µM): 18.9

----------
tested on: MT4 cells; experiment: Cytotoxicity in MT4 cells (LC50, 50% of the cells remain viable); format: cell-based; conditions: MT4 cells; concentration at which 50% of the cells remain viable
Note to self: use YES only for CC50 readings below 40 µM; a reading exactly at 40 µM still gets NO.

- compound: "CCc1nc(COC(=O)N[C@H](C(=O)N[C@@H](Cc2ccccc2)[C@H](O)CN2CCN(Cc3ccc(OC)c(OC)c3)C[C@H]2C(=O)NC(C)(C)C)C(C)C)cs1 [Example 18]"
  tested_target: "MT4 cells"
  assigned_category: "NO"
- compound: "Cc1nc(COC(=O)N[C@H](C(=O)N[C@@H](Cc2ccccc2)[C@H](O)CN2CCN(Cc3ccc4c(c3)OCO4)C[C@H]2C(=O)NC(C)(C)C)C(C)C)cs1 [Example 15]"
  tested_target: "MT4 cells"
  assigned_category: "NO"
- compound: "CC(C)c1nc(COC(=O)N[C@H](C(=O)N[C@@H](Cc2ccccc2)[C@H](O)CN2CCN(Cc3ccc4c(c3)OCO4)C[C@H]2C(=O)NC(C)(C)C)C(C)C)cs1 [Example 1]"
  tested_target: "MT4 cells"
  assigned_category: "YES"
- compound: "CC(C)c1nc(COC(=O)N[C@H](C(=O)N[C@@H](Cc2ccccc2)[C@H](O)CN2CCN(Cc3nc4ccccc4[nH]3)C[C@H]2C(=O)NC(C)(C)C)C(C)C)cs1 [Example 9]"
  tested_target: "MT4 cells"
  assigned_category: "YES"

----------
Below, each of the molecules is paired with its reported pEC50 value.
system: HIV; assay: Antiviral activity: inhibition of the cytopathic effect of HIV in MT4 cells; format: cell-based; details: MT4 cells; 50% inhibition of the cytopathic effect of HIV; read-out: EC50
pEC50: −log10 of the molar value.
recorded_metric: pEC50

- smiles_input: "CC(C)c1nc(COC(=O)N[C@H](C(=O)N[C@@H](Cc2ccccc2)[C@H](O)CN2CCN(Cc3nc4ccccc4[nH]3)C[C@H]2C(=O)NC(C)(C)C)C(C)C)cs1"
  tested_target: "HIV"
  test_value: 7.34
- smiles_input: "CC(C)c1ncc(COC(=O)N[C@H](C(=O)N[C@@H](Cc2ccccc2)[C@H](O)CN2C[C@H]3CCCC[C@H]3C[C@H]2C(=O)NC(C)(C)C)C(C)C)s1"
  tested_target: "HIV"
  test_value: 7.70
- smiles_input: "COc1ccc(CN2CCN(C[C@@H](O)[C@H](Cc3ccccc3)NC(=O)[C@@H](NC(=O)OCc3csc(C)n3)C(C)C)[C@H](C(=O)NC(C)(C)C)C2)cc1OC"
  tested_target: "HIV"
  test_value: 8.00
- smiles_input: "CC(C)c1nc(COC(=O)N[C@H](C(=O)N[C@@H](Cc2ccccc2)[C@H](O)CN2CCN(Cc3ccncc3)C[C@H]2C(=O)NC(C)(C)C)C(C)C)cs1"
  tested_target: "HIV"
  test_value: 7.77
- smiles_input: "Cc1nc(COC(=O)N[C@H](C(=O)N[C@@H](Cc2ccccc2)[C@H](O)CN2CCN(Cc3ccc(F)cc3)C[C@H]2C(=O)NC(C)(C)C)C(C)C)cs1"
  tested_target: "HIV"
  test_value: 7.96
- smiles_input: "CC(C)[C@H](NC(=O)OCc1cncs1)C(=O)N[C@@H](Cc1ccccc1)[C@H](O)CN1CCN(Cc2cncs2)C[C@H]1C(=O)NC(C)(C)C"
  tested_target: "HIV"
  test_value: 7.24
- smiles_input: "COc1ccc(CN2CCN(C[C@@H](O)[C@H](Cc3ccccc3)NC(=O)[C@@H](NC(=O)OCc3csc(C(C)C)n3)C(C)C)[C@H](C(=O)NC(C)(C)C)C2)cc1OC"
  tested_target: "HIV"
  test_value: 7.77
- smiles_input: "COc1ccc(CN2CCN(C[C@@H](O)[C@H](Cc3ccccc3)NC(=O)[C@@H](NC(=O)OCc3cnc(C(C)C)s3)C(C)C)[C@H](C(=O)NC(C)(C)C)C2)cc1OC"
  tested_target: "HIV"
  test_value: 7.77
- smiles_input: "CC(C)c1nc(COC(=O)N[C@H](C(=O)N[C@@H](Cc2ccccc2)[C@H](O)CN2CCN(Cc3ccc(O)cc3)C[C@H]2C(=O)NC(C)(C)C)C(C)C)cs1"
  tested_target: "HIV"
  test_value: 7.33
- smiles_input: "CC(C)c1nc(COC(=O)N[C@H](C(=O)N[C@@H](Cc2ccccc2)[C@H](O)CN2CCN(Cc3cccnc3)C[C@H]2C(=O)NC(C)(C)C)C(C)C)cs1"
  tested_target: "HIV"
  test_value: 7.92
- smiles_input: "Cc1nc(COC(=O)N[C@H](C(=O)N[C@@H](Cc2ccccc2)[C@H](O)CN2CCN(Cc3ccc4c(c3)OCO4)C[C@H]2C(=O)NC(C)(C)C)C(C)C)cs1"
  tested_target: "HIV"
  test_value: 7.96
